Molecular target: UniProt:P21462
Sequence (P21462 whole entry): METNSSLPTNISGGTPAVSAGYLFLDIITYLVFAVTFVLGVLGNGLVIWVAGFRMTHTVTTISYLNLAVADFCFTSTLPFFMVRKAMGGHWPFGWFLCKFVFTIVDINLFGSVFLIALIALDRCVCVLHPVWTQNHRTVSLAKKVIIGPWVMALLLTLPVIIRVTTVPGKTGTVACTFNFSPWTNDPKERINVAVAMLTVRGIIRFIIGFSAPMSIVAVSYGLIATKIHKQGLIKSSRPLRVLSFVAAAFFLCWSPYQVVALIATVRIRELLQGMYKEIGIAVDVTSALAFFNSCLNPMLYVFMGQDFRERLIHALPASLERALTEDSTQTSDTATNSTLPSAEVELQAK
Assay: FPR1 cyclic adenosine monophosphate (cAMP) assay
Details: CHO cells overexpressing human FPR1; inhibition of forskolin (10 μM) stimulated cAMP; read-out: hFPR1 cAMP EC50
// values below are reported EC50
Give a bare numeral; the unit nM is implied.

Below: 3 compounds and their reported EC50.
{"Compound": "O=C(Nc1ccc(C(F)(F)F)cc1)N[C@@H]1CCCN(c2ccc(-c3cccc(F)c3F)cc2)C1=O [Example 125]", "Result Unit": "nM", "EC50": 330}
{"Compound": "COc1ccc(NC(=O)N[C@@H]2CCCN(c3ccc(-c4ccccc4C(N)=O)cc3)C2=O)cc1Cl [Example 176]", "Result Unit": "nM", "EC50": 1200}
{"Compound": "CS(=O)(=O)Nc1ccccc1-c1ccc(N2C[C@H](O)C[C@@H](NC(=O)Nc3ccc(Cl)cc3F)C2=O)cc1 [Example 277]", "Result Unit": "nM", "EC50": 8.4}

Please turn your attention to the following entry.
Query: Consider the compound CS(=O)(=O)Nc1ccccc1-c1ccc(N2CCC[C@@H](NC(=O)Nc3ccc(Cl)cc3)C2=O)cc1 [Example 86] and give its recorded EC50.
Result: 32
